These entries and their values trace back to patent US20230391852A1.

- tested on: SARS-CoV-2 RBD (SARS-CoV-2, UniProt P0DTC2 319-541)
- protocol notes: monoclonal VHH phage clone binding screen (FIG. 3A)
measurement label: binding result

Look over these answered cases.
NCI-CoV-2A10 (VHH) VHH: QVQLVESGGGSVQAGGSLRLSCAMSGLRVSNRCMGWFRQAPGKEREGVATICIGDGSTAYADSVKGRFTISQDNAKTTVFLEMNSLKPEDTAMYSCARAVRATAATLDPGNFFYWGQGTQVTVSS ... binds
NCI-CoV-8B6 (VHH) VHH: AVQLVDSGGGSVQAGGSLRLSCAASGITYSTNCMGWFRQAPGKGLEWVSGINSDGRNTYYADSVKGRFTISQDNAKNTVYLQMNSLKPEDTAMYYCAAGSWYNQWGYSMDYWGQGTQVTVSS ... binds
NCI-CoV-2B3 (VHH) VHH: DVQLVESGGSSVQAGGSLRLSCAASGDSYRGNLMGWFRQAPGKAREGVAVIFTPNHNTYAADSVKGRFTISQDKAKNMVYLQMNSLKPEDTAMYYCATGWEGGLILSARAYRYWGQGTQVTVSS ... binds
NCI-CoV-8A1 (VHH) VHH: QVQLVESGGGSVQAGGSLRLSCAASGFTFSSYFMTWVRQAPGKGLEWVSTINSDGSNTYYADSVKGRFTISRDNAKNTLYLQMNSLKPEDTAMYYCNFRRMIGTSNLNYWGQGTQVTVSS ... binds

What does the record list as binding result for NCI-CoV-4C6 (VHH) VHH: QVQLVESGGGSVQAGESLRLSCAVSGISSSTHYMAWFRQLPGKEREGLANIYTPAKVSLYANDVKGRFTISQDVTKNTVYLQMNSLKPEDTAMYYCAARRNAVCNAGSPLDFEFSYWGQGTQVTVSS ?
binds

What does the record list as binding result for NCI-CoV-1H8 (VHH) VHH: QVQLVESGGGLVQPGGSLRLSCAASGFTFSSYDMTWVRQAPGKGLEWVAAIYTADGSTYLDDSVKGRFTISQDNAKKTLYLQMTSLKVEDTAKYTCATGVGGSFSNWGRGTQVTVSS ?
binds

What does the record list as binding result for NCI-CoV-1D7 (VHH) VHH: QVKLEESGGGLVQPGGSLKLSCTASGFTFSSYNMSWVRQAPGKGLKWVSMIRSDGSNTYYLDSVKGRFTISRDNAKNTVYLQMNSLEPGDTAVYYCVAGRHATYWGQGTQVTVSS ?
binds
